Molecular target: EPHA5 (human)
Assay: KINOMEscan competition binding
Settings: compound 10.0 µM
OUTCOME MEASURE: kinase still bound, per cent of control (%)

COMPOUND: CC(=O)c1c(C)c2cnc(Nc3ccc(N4CCNCC4)cn3)nc2n(C2CCCC2)c1=O
OUTCOME MEASURE: kinase still bound, per cent of control
RESULT: 98
//
COMPOUND: CC1=C(C(=O)Nc2cc3cn[nH]c3cc2F)C(c2ccc(C(F)(F)F)cc2)CC(=O)N1 (stereo not drawn)
OUTCOME MEASURE: kinase still bound, per cent of control
RESULT: 86
//
COMPOUND: CNC(=O)Nc1ccc(-c2nc(N3CC4CCC(C3)O4)c3cnn(C4CCC5(CC4)OCCO5)c3n2)cc1
OUTCOME MEASURE: kinase still bound, per cent of control
RESULT: 92

Data origin, for the record: the kinase profiling compilation of Christmann-Franck et al. (2016)
